Below, each entry is listed with its recorded GRinf.
tested on: Mycobacterium tuberculosis Erdman (autoluminescent); assay: GRinf, maximum normalised growth rate inhibition (three-drug combination) (unitless (-1 to 1)); higher = less effect (negative = killing); details: in vitro model: valerate; time point: terminal (~4-5 doublings, model-specific)
REPORTED_PROPERTY: GRinf

MOLECULE	SYSTEM_TESTED	RESULT_VALUE
CC(C)/N=c1\cc2n(-c3ccc(Cl)cc3)c3ccccc3nc-2cc1Nc1ccc(Cl)cc1 [clofazimine] + COc1c(N2C[C@@H]3CCCN[C@@H]3C2)c(F)cc2c(=O)c(C(=O)O)cn(C3CC3)c12 [moxifloxacin] + NC(=O)c1cnccn1 [pyrazinamide]	Mycobacterium tuberculosis Erdman (autoluminescent)	0.0776
CC(=O)NC[C@H]1CN(c2ccc(N3CCOCC3)c(F)c2)C(=O)O1 [linezolid] + O=[N+]([O-])c1cn2c(n1)OC[C@@H](OCc1ccc(OC(F)(F)F)cc1)C2 [pretomanid] + NC(=O)c1cnccn1 [pyrazinamide]	Mycobacterium tuberculosis Erdman (autoluminescent)	0.177

----------
The entries below come with measured total FIC50 values attached.
system: Mycobacterium tuberculosis Erdman (autoluminescent); test: total FIC50 (Loewe) at 50% inhibition, three-drug combination (log2); higher = more antagonistic; details: in vitro model: butyrate; time point: terminal (~4-5 doublings, model-specific)
REPORTED_PROPERTY: total FIC50

MOLECULE	SYSTEM_TESTED	REPORTED_PROPERTY	RESULT_VALUE
NNC(=O)c1ccncc1 [isoniazid] + COc1c(N2C[C@@H]3CCCN[C@@H]3C2)c(F)cc2c(=O)c(C(=O)O)cn(C3CC3)c12 [moxifloxacin] + O=[N+]([O-])c1cn2c(n1)OC[C@@H](OCc1ccc(OC(F)(F)F)cc1)C2 [pretomanid]	Mycobacterium tuberculosis Erdman (autoluminescent)	total FIC50	2.53
CC(C)/N=c1\cc2n(-c3ccc(Cl)cc3)c3ccccc3nc-2cc1Nc1ccc(Cl)cc1 [clofazimine] + CC(=O)NC[C@H]1CN(c2ccc(N3CCOCC3)c(F)c2)C(=O)O1 [linezolid] + COc1c(N2C[C@@H]3CCCN[C@@H]3C2)c(F)cc2c(=O)c(C(=O)O)cn(C3CC3)c12 [moxifloxacin]	Mycobacterium tuberculosis Erdman (autoluminescent)	total FIC50	0.802

----------
system: Mycobacterium tuberculosis Erdman (autoluminescent); experiment: Einf, fitted maximum growth inhibition of three-drug combination (fraction); higher = stronger maximal inhibition; conditions: in vitro model: acidic pH 5.7; time point: constant (~7 days, model-specific)

COMPOUND	SYSTEM_TESTED	Einf
CC[C@@H](CO)NCCN[C@@H](CC)CO [ethambutol] + NNC(=O)c1ccncc1 [isoniazid] + CO[C@H]1/C=C/O[C@@]2(C)Oc3c(C)c(O)c4c(O)c(c(/C=N/N5CCN(C)CC5)c(O)c4c3C2=O)NC(=O)/C(C)=C\C=C\[C@H](C)[C@H](O)[C@@H](C)[C@@H](O)[C@@H](C)[C@H](OC(C)=O)[C@@H]1C [rifampicin]	Mycobacterium tuberculosis Erdman (autoluminescent)	0.899
COc1nc2ccc(Br)cc2cc1[C@@H](c1ccccc1)[C@@](O)(CCN(C)C)c1cccc2ccccc12 [bedaquiline] + NNC(=O)c1ccncc1 [isoniazid] + CC(=O)NC[C@H]1CN(c2ccc(N3CCOCC3)c(F)c2)C(=O)O1 [linezolid]	Mycobacterium tuberculosis Erdman (autoluminescent)	0.912
COc1nc2ccc(Br)cc2cc1[C@@H](c1ccccc1)[C@@](O)(CCN(C)C)c1cccc2ccccc12 [bedaquiline] + COc1c(N2C[C@@H]3CCCN[C@@H]3C2)c(F)cc2c(=O)c(C(=O)O)cn(C3CC3)c12 [moxifloxacin] + O=[N+]([O-])c1cn2c(n1)OC[C@@H](OCc1ccc(OC(F)(F)F)cc1)C2 [pretomanid]	Mycobacterium tuberculosis Erdman (autoluminescent)	0.838
COc1nc2ccc(Br)cc2cc1[C@@H](c1ccccc1)[C@@](O)(CCN(C)C)c1cccc2ccccc12 [bedaquiline] + NNC(=O)c1ccncc1 [isoniazid] + CO[C@H]1/C=C/O[C@@]2(C)Oc3c(C)c(O)c4c(O)c(c(/C=N/N5CCN(C)CC5)c(O)c4c3C2=O)NC(=O)/C(C)=C\C=C\[C@H](C)[C@H](O)[C@@H](C)[C@@H](O)[C@@H](C)[C@H](OC(C)=O)[C@@H]1C [rifampicin]	Mycobacterium tuberculosis Erdman (autoluminescent)	0.955
COc1nc2ccc(Br)cc2cc1[C@@H](c1ccccc1)[C@@](O)(CCN(C)C)c1cccc2ccccc12 [bedaquiline] + CC[C@@H](CO)NCCN[C@@H](CC)CO [ethambutol] + NNC(=O)c1ccncc1 [isoniazid]	Mycobacterium tuberculosis Erdman (autoluminescent)	0.858
CC(=O)NC[C@H]1CN(c2ccc(N3CCOCC3)c(F)c2)C(=O)O1 [linezolid] + O=[N+]([O-])c1cn2c(n1)OC[C@@H](OCc1ccc(OC(F)(F)F)cc1)C2 [pretomanid] + NC(=O)c1cnccn1 [pyrazinamide]	Mycobacterium tuberculosis Erdman (autoluminescent)	0.856
COc1nc2ccc(Br)cc2cc1[C@@H](c1ccccc1)[C@@](O)(CCN(C)C)c1cccc2ccccc12 [bedaquiline] + CC[C@@H](CO)NCCN[C@@H](CC)CO [ethambutol] + NC(=O)c1cnccn1 [pyrazinamide]	Mycobacterium tuberculosis Erdman (autoluminescent)	0.873
CC[C@@H](CO)NCCN[C@@H](CC)CO [ethambutol] + CC(=O)NC[C@H]1CN(c2ccc(N3CCOCC3)c(F)c2)C(=O)O1 [linezolid] + NC(=O)c1cnccn1 [pyrazinamide]	Mycobacterium tuberculosis Erdman (autoluminescent)	0.835
CC[C@@H](CO)NCCN[C@@H](CC)CO [ethambutol] + O=[N+]([O-])c1cn2c(n1)OC[C@@H](OCc1ccc(OC(F)(F)F)cc1)C2 [pretomanid] + CO[C@H]1/C=C/O[C@@]2(C)Oc3c(C)c(O)c4c(O)c(c(/C=N/N5CCN(C)CC5)c(O)c4c3C2=O)NC(=O)/C(C)=C\C=C\[C@H](C)[C@H](O)[C@@H](C)[C@@H](O)[C@@H](C)[C@H](OC(C)=O)[C@@H]1C [rifampicin]	Mycobacterium tuberculosis Erdman (autoluminescent)	0.896
CC(C)/N=c1\cc2n(-c3ccc(Cl)cc3)c3ccccc3nc-2cc1Nc1ccc(Cl)cc1 [clofazimine] + CC[C@@H](CO)NCCN[C@@H](CC)CO [ethambutol] + NC(=O)c1cnccn1 [pyrazinamide]	Mycobacterium tuberculosis Erdman (autoluminescent)	0.725
CC(C)/N=c1\cc2n(-c3ccc(Cl)cc3)c3ccccc3nc-2cc1Nc1ccc(Cl)cc1 [clofazimine] + NNC(=O)c1ccncc1 [isoniazid] + NC(=O)c1cnccn1 [pyrazinamide]	Mycobacterium tuberculosis Erdman (autoluminescent)	0.819
CC(C)/N=c1\cc2n(-c3ccc(Cl)cc3)c3ccccc3nc-2cc1Nc1ccc(Cl)cc1 [clofazimine] + NC(=O)c1cnccn1 [pyrazinamide] + CO[C@H]1/C=C/O[C@@]2(C)Oc3c(C)c(O)c4c(O)c(c(/C=N/N5CCN(C6CCCC6)CC5)c(O)c4c3C2=O)NC(=O)/C(C)=C\C=C\[C@H](C)[C@H](O)[C@@H](C)[C@@H](O)[C@@H](C)[C@H](OC(C)=O)[C@@H]1C [rifapentine]	Mycobacterium tuberculosis Erdman (autoluminescent)	0.872
COc1nc2ccc(Br)cc2cc1[C@@H](c1ccccc1)[C@@](O)(CCN(C)C)c1cccc2ccccc12 [bedaquiline] + CC[C@@H](CO)NCCN[C@@H](CC)CO [ethambutol] + CO[C@H]1/C=C/O[C@@]2(C)Oc3c(C)c(O)c4c(O)c(c(/C=N/N5CCN(C)CC5)c(O)c4c3C2=O)NC(=O)/C(C)=C\C=C\[C@H](C)[C@H](O)[C@@H](C)[C@@H](O)[C@@H](C)[C@H](OC(C)=O)[C@@H]1C [rifampicin]	Mycobacterium tuberculosis Erdman (autoluminescent)	0.925

----------
test system: Mycobacterium tuberculosis Erdman (autoluminescent); assay: total FIC50 (Loewe) at 50% inhibition, three-drug combination (log2); higher = more antagonistic; details: in vitro model: dormancy (butyrate + nitrate, low O2); time point: constant (~7 days, model-specific)
Measured total FIC50 by item

COMPOUND	total FIC50
CC(C)/N=c1\cc2n(-c3ccc(Cl)cc3)c3ccccc3nc-2cc1Nc1ccc(Cl)cc1 [clofazimine] + NNC(=O)c1ccncc1 [isoniazid] + NC(=O)c1cnccn1 [pyrazinamide]	-0.675
O=[N+]([O-])c1cn2c(n1)OC[C@@H](OCc1ccc(OC(F)(F)F)cc1)C2 [pretomanid] + NC(=O)c1cnccn1 [pyrazinamide] + CO[C@H]1/C=C/O[C@@]2(C)Oc3c(C)c(O)c4c(O)c(c(/C=N/N5CCN(C6CCCC6)CC5)c(O)c4c3C2=O)NC(=O)/C(C)=C\C=C\[C@H](C)[C@H](O)[C@@H](C)[C@@H](O)[C@@H](C)[C@H](OC(C)=O)[C@@H]1C [rifapentine]	0.097
NNC(=O)c1ccncc1 [isoniazid] + CC(=O)NC[C@H]1CN(c2ccc(N3CCOCC3)c(F)c2)C(=O)O1 [linezolid] + CO[C@H]1/C=C/O[C@@]2(C)Oc3c(C)c(O)c4c(O)c(c(/C=N/N5CCN(C)CC5)c(O)c4c3C2=O)NC(=O)/C(C)=C\C=C\[C@H](C)[C@H](O)[C@@H](C)[C@@H](O)[C@@H](C)[C@H](OC(C)=O)[C@@H]1C [rifampicin]	0.857
